# reported Selectivity FGFR1/3; entries follow
- SYSTEM_TESTED: FGFR3 (Homo sapiens, UniProt P22607)
- Construct: purchased Invitrogen PV3145
- Sequence (P22607 23-806): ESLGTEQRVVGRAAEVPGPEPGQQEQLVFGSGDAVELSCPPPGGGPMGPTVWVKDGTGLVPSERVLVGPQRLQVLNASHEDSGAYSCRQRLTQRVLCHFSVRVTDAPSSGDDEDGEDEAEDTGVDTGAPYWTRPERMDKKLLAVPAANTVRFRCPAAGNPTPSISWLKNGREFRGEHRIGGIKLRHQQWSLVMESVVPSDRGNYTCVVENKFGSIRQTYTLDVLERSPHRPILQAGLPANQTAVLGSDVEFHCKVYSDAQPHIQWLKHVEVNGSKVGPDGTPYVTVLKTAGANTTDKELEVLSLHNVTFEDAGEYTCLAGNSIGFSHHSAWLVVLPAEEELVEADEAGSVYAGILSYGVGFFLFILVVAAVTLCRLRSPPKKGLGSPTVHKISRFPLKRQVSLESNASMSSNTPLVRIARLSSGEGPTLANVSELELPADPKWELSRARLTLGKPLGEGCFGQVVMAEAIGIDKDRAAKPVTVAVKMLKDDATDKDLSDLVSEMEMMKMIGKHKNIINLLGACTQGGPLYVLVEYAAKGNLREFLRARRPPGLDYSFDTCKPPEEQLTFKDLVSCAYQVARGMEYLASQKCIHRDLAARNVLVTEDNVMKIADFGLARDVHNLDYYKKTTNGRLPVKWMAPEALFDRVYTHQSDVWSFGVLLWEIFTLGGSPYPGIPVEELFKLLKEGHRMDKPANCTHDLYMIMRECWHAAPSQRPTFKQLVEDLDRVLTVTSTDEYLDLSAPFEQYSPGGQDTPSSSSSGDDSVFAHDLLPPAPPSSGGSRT
- PROTOCOL_TEXT: 33P isotope-labeled kinase activity test (Reaction Biology Corp), wild-type FGFR3
- Type: biochemical
- CONDITION: ratio of IC50 FGFR1 to IC50 FGFR3
Counter-ions that a name gives are not always drawn.

{"COMPOUND": "COc1cc(OC)c(Cl)c(-c2nc(-c3nc(-c4cn(C)nc4C)cnc3N)cn(C)c2=O)c1 [Trifluoroacetate salt of 0027]", "Selectivity FGFR1/3": 3.06}
{"COMPOUND": "COc1cc(OC)c(Cl)c(-c2nc(-c3nc(-c4ccc(C5CCN(C)CC5)nc4)cnc3N)cn(C)c2=O)c1 [Trifluoroacetate salt of 0060]", "Selectivity FGFR1/3": 3.26}

Here is another compound to look at.
Lab book: Selectivity FGFR1/3 of COc1cc(OC)cc(-c2nc(-c3nc(-c4cn(C)nc4C)cnc3N)cn(C)c2=O)c1 [Hydrochloride salt of 0023] noted as 5.52

These entries and their values trace back to patent US11286248B2.
